compounds and their reported MIC
- Tested on: Candida albicans
- procedure_summary: Antifungal activity against Candida albicans ATCC 90028 after 48 hrs by spectrophotometric analysis
- Type: functional, organism-based
- particulars: ATCC 90028, 48 h

Entry C[C@@H]1O[C@@H](O[C@H]2C[C@](C)(O)Cc3cc4c(c(O)c32)C(=O)c2c(O)cccc2C4=O)[C@H](O)[C@H](O)[C@H]1O : reported MIC = ?
> 30 µM

---

- Tested on: Candida albicans
- procedure_summary: Antifungal activity against Candida albicans ATCC 90028 after 48 hrs by spectrophotometric analysis
- Type: functional, organism-based
- particulars: ATCC 90028, 48 h
readout: MIC

molecule	MIC
CO[C@H]1[C@H](O[C@H]2C[C@](C)(O)Cc3cc4c(c(O)c32)C(=O)c2c(O)cccc2C4=O)O[C@@H](C)[C@H](O)[C@H]1O	> 30 µM
CO[C@H]1[C@H](O[C@H]2C[C@](C)(O)C(=O)c3cc4c(c(O)c32)C(=O)c2c(O)cccc2C4=O)O[C@@H](C)[C@H](O)[C@H]1O	> 30 µM

Turning now to a further molecule:
Entry CO[C@H]1[C@H](O[C@@H]2c3c(cc4c(c3O)C(=O)c3c(O)cccc3C4=O)C(=O)[C@@](C)(O)[C@H]2OC)O[C@@H](C)[C@H](O)[C@H]1O [ARANCIAMYCIN] : reported MIC = ?
> 30 µM
